meta.source: patent US7842469B2

- PROTOCOL_DESCRIPTION: Serum stability in mouse serum at 37° C.
- Assay type: in vitro ADME
- CONDITION_DETAILS: mouse serum, 37° C., mono-exponential fit
METRIC_NAME: Serum τ1/2 (h) mouse

MOLECULE	UNIT_STRING	QUANTITATIVE_READOUT
C124A/Q235A: RLuc mutant C124A/Q235A (protein) MASKVYDPEQRKRMITGPQWWARCKQMNVLDSFINYYDSEKHAENAVIFLHGNAASSYLWRHVVPHIEPVARCIIPDLIGMGKSGKSGNGSYRLLDHYKYLTAWFELLNLPKKIIFVGHDWGAALAFHYSYEHQDKIKAIVHAESVVDVIESWDEWPDIEEDIALIKSEEGEKMVLENNFFVETMLPSKIMRKLEPEEFAAYLEPFKEKGEVRRPTLSWPREIPLVKGGKPDVVAIVRNYNAYLRASDDLPKMFIESDPGFFSNAIVEGAKKFPNTEFVKVKGLHFSQEDAPDEMGKYIKSFVERVLKNEQ	h	3.3
C124A/S130A: RLuc mutant C124A/S130A (protein) MASKVYDPEQRKRMITGPQWWARCKQMNVLDSFINYYDSEKHAENAVIFLHGNAASSYLWRHVVPHIEPVARCIIPDLIGMGKSGKSGNGSYRLLDHYKYLTAWFELLNLPKKIIFVGHDWGAALAFHYAYEHQDKIKAIVHAESVVDVIESWDEWPDIEEDIALIKSEEGEKMVLENNFFVETMLPSKIMRKLEPEEFAAYLEPFKEKGEVRRPTLSWPREIPLVKGGKPDVVQIVRNYNAYLRASDDLPKMFIESDPGFFSNAIVEGAKKFPNTEFVKVKGLHFSQEDAPDEMGKYIKSFVERVLKNEQ	h	18
